Source of measurements: patent US7547783B2

Experiment: physchem
Conditions: 20 °C, organic solvent or mixture, thermodynamic from solid
Reported solubility at 24 h values for a set of compounds

>  <compound>
CCCCCCCCCCCCCCCCCCCCOc1c(-c2ccccc2)cc([N+]2=C(C)c3cccc4[n+]3[Co]2([Cl])([Cl])[N+](c2ccccc2C(C)(C)C)=C4C)cc1-c1ccccc1

>  <solubility at 24 h>
~50 mg/mL

$$$$
>  <compound>
CC1=[N+](c2cc(C(C)(C)C)cc(C(C)(C)C)c2)[Fe]2([Cl])([Cl])[N+](c3c(C)cc(C)cc3C)=C(C)c3cccc1[n+]32 [Example 2, reference compound]

>  <solubility at 24 h>
< 1 mg/mL

$$$$
>  <compound>
CCCCCCCCCCCCCCCCCCCCOc1c(-c2ccccc2)cc([N+]2=C(C)c3cccc4[n+]3[Co]2([Cl])([Cl])[N+](c2cc(-c3ccccc3)c(OCCCCCCCCCCCCCCCCCCCC)c(-c3ccccc3)c2)=C4C)cc1-c1ccccc1

>  <solubility at 24 h>
~100 mg/mL

$$$$
>  <compound>
CCCCCCCCCCCCCCCCCCCCOc1c(-c2ccccc2)cc([N+]2=C(C)c3cccc4[n+]3[Fe]2([Cl])([Cl])[N+](c2cc(-c3ccccc3)c(OCCCCCCCCCCCCCCCCCCCC)c(-c3ccccc3)c2)=C4C)cc1-c1ccccc1

>  <solubility at 24 h>
~100 mg/mL

$$$$
>  <compound>
CCCCCCCCCCCCCCCCCCCCOc1c(-c2ccccc2)cc([N+]2=C(C)c3cccc4[n+]3[Co]2([Cl])([Cl])[N+](c2c(C)cc(C)cc2C)=C4C)cc1-c1ccccc1

>  <solubility at 24 h>
50 mg/mL

$$$$
>  <compound>
CCCCCCCCCCCCCCCCCCCCOc1ccc([N+]2=C(C)c3cccc4[n+]3[Fe]2([Cl])([Cl])[N+](c2ccc(OCCCCCCCCCCCCCCCCCCCC)cc2C)=C4C)c(C)c1 [Example 11, reference compound]

>  <solubility at 24 h>
< 1 mg/mL

$$$$
>  <compound>
CCCCCCCCCCCCCCCCCCCCOc1c(-c2ccccc2)cc([N+]2=C(C)c3cccc4[n+]3[Fe]2([Cl])([Cl])[N+](c2c(C)cc(C)cc2C)=C4C)cc1-c1ccccc1

>  <solubility at 24 h>
~50 mg/mL

$$$$
>  <compound>
CCCOc1c(-c2ccccc2)cc([N+]2=C(C)c3cccc4[n+]3[Co]2([Cl])([Cl])[N+](c2c(C)cc(C)cc2C)=C4C)cc1-c1ccccc1 [Example 13, reference compound]

>  <solubility at 24 h>
< 1 mg/mL

$$$$
